The measured values listed here are drawn from patent US20230348616A1.

molecular target: T1, gp100 (human); experiment: flow cytometry on peptide-pulsed T2 cells, scFv 100 nM
T1 construct: cell surface;cell surface complex; also called HLA-A2 / gp100 peptide complex on T2 cells
property: standardized gMFI

Ask: Tell me its standardized gMFI given NYA-2045 (scFv, also called NYA-2045 tag adduct) scFv: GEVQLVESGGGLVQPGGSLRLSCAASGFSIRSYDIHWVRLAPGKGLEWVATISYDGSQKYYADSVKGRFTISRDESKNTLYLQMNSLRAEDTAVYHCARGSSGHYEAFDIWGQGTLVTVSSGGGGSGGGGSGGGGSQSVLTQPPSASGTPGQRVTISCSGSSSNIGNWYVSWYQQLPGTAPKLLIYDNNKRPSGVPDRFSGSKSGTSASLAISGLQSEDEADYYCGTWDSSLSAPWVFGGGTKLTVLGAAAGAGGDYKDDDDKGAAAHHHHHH as the entry.
Result: 0.39

Ask: Provide only the value of recorded standardized gMFI for NYA-2023 (scFv) scFv: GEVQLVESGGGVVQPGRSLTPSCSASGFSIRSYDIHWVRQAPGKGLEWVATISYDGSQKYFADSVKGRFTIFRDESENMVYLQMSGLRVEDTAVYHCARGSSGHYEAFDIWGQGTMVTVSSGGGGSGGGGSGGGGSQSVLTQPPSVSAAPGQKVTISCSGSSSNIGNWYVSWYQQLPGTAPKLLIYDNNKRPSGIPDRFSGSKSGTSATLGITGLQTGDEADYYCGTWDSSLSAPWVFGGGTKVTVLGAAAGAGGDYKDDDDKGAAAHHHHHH
Result: 0.4
